measured_on: Tlp10^LBD N115A (Campylobacter jejuni, UniProt Q0PCA6, N115A)
assay_details: biochemical
Format: binding, C. jejuni
stated_conditions: read-out: KD Tlp10^LBD N115A; SPR, mean ± s.d., n = 3
result_type: Kd (µM)
Write the answer as a number in µM, unit excluded.

Q: So what does the record say about Kd for O=C(O)CCC(=O)C(=O)O [α-ketoglutarate] ?
A: 630

====

measured_on: Tlp10^LBD N120A (Campylobacter jejuni, UniProt Q0PCA6, N120A)
assay_details: biochemical
Format: binding, C. jejuni
pKd: −log10 of the molar value.
Note to self: values exactly at 4 are YES. So pKd at or above 4 is YES, below is NO.

Use these answered entries as a reference point.
In [3]: df
Out[3]:
                                   compound                               measured_on  assigned_category
0       N=C(N)NCCC[C@H](N)C(=O)O [arginine]  Tlp10^LBD N120A (Campylobacter jejuni, UniProt Q0PCA6, N120A)                YES
1  O=C(O)CC(O)C(=O)O (stereo not drawn) [malate]  Tlp10^LBD N120A (Campylobacter jejuni, UniProt Q0PCA6, N120A)                 NO
2                 c1ncc2nc[nH]c2n1 [purine]  Tlp10^LBD N120A (Campylobacter jejuni, UniProt Q0PCA6, N120A)                YES

Q: Does pKd meet or surpass 4 for CC[C@H](C)[C@H](N)C(=O)O [isoleucine] ?
A: YES

Q: # bool: pKd of Cc1ncc(C[n+]2csc(CCO)c2C)c(N)n1 [thiamine] >= 4
A: YES

Q: Form field: pKd at least 4? Entry: CC(=O)N[C@H]1[C@H]([C@H](O)[C@H](O)CO)OC(O)(C(=O)O)C[C@@H]1O (stereo partly drawn) [sialic acid]
A: YES

====

// values below are reported pKd
measured_on: Tlp10^LBD N115A (Campylobacter jejuni, UniProt Q0PCA6, N115A)
assay_details: biochemical
Type: binding, C. jejuni
A value of pKd is the negative decimal logarithm of a concentration given in moles per litre.

In [3]: df
Out[3]:
                              compound  reported_measurement
0  N=C(N)NCCC[C@H](N)C(=O)O [arginine]                  4.38

Q: Can you look up the measured pKd of OC[C@H]1OC(O)[C@@H](O)[C@@H](O)[C@@H]1O (stereo partly drawn) [mannose] for me?
A: 4.28

Q: Consider the compound shown here: O=C(O)CC(O)C(=O)O (stereo not drawn) [malate] What is its recorded pKd?
A: 3.75

Q: Bench note: what pKd did c1ncc2nc[nH]c2n1 [purine] show?
A: 4.54

Q: # lookup: pKd of N[C@@H](CC(=O)O)C(=O)O [aspartate]
A: 4.53

Q: Please give the measured pKd for this compound: Cc1ncc(C[n+]2csc(CCO)c2C)c(N)n1 [thiamine]
A: 4.31

Q: What value of pKd has been reported for the following compound? CC[C@H](C)[C@H](N)C(=O)O [isoleucine]
A: 4.32

Q: Value lookup for pKd; key = C[C@H](O)[C@@H](O)[C@@H](O)[C@H](O)C=O [fucose]
A: 4.66

Q: Any idea what its pKd is? The compound is CC(=O)N[C@H]1[C@H]([C@H](O)[C@H](O)CO)OC(O)(C(=O)O)C[C@@H]1O (stereo partly drawn) [sialic acid]
A: 4.46

====

measured_on: Tlp10^LBD wild type (Campylobacter jejuni, UniProt Q0PCA6)
assay_details: biochemical
Type: binding
stated_conditions: KD Tlp10^LBD Wild-type, SPR, Table 2, mean ± s.d., n = 3
Strictly below 30 µM in Kd: t. Otherwise: f.

Example entries begin here.
>>> print(df.to_string())
                                   molecule                               measured_on  assigned_category
0       N=C(N)NCCC[C@H](N)C(=O)O [arginine]  Tlp10^LBD wild type (Campylobacter jejuni, UniProt Q0PCA6)                  t
1                 c1ncc2nc[nH]c2n1 [purine]  Tlp10^LBD wild type (Campylobacter jejuni, UniProt Q0PCA6)                  t
2  O=C(O)CC(O)C(=O)O (stereo not drawn) [malate]  Tlp10^LBD wild type (Campylobacter jejuni, UniProt Q0PCA6)                  f

Q: API: query returns whether the molecule falls strictly under 30 µM in Kd. Query: OC[C@H]1OC(O)[C@@H](O)[C@@H](O)[C@@H]1O (stereo partly drawn) [mannose]
A: f
